Reported furin cleavage Z-score values follow for various sequences
Target: furin, P09958;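 also: purified furin at 1:10 enzyme:substrate in 50 mM HEPES pH 7.5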
Sequence (P09958 whole entry): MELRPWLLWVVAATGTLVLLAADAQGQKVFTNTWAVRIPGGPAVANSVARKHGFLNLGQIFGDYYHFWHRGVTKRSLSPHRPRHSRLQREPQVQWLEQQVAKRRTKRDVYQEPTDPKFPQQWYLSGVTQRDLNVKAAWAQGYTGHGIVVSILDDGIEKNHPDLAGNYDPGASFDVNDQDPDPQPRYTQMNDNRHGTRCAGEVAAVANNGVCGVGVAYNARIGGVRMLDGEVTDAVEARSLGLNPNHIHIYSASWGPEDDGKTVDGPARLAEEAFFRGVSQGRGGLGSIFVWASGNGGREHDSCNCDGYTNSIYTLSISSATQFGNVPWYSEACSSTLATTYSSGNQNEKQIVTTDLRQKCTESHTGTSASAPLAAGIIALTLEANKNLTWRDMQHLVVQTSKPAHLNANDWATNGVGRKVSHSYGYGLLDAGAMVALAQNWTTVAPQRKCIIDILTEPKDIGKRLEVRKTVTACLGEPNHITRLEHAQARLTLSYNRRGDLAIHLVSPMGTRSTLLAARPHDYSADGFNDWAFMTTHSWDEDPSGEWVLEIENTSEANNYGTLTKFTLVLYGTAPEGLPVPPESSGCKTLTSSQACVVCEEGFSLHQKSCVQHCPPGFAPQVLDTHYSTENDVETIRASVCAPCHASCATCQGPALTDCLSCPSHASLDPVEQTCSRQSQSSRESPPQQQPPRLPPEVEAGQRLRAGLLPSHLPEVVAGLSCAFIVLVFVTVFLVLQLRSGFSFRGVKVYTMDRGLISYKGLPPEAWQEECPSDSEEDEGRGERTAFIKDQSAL
Test: furin cleavage Z-score vs untreated control; higher = more cleavage, active = 3.5 or more, inactive = 1 or less, 8 variable residues between constant flanks
Conditions: 15 min
The list shows a part of the results. No count for the full screen is at hand.
Please respond with just the number, no unit label.

CALTPCSGSWAGNASASA [HC1825] : -0.817
CARKRRDTGGAGNASASA [FS-2346] : 4.44
CAEVPCHRWSAGNASASA [HC2388] : 1.69

Now for the sequence whose furin cleavage Z-score we want.
Per the records, this sequence ( CARKRRSKSRAGNASASA [FS-2272] ) has furin cleavage Z-score equal to 6.56
